# Test system: P. aeruginosa strain WC-453
# PROTOCOL_DETAILS: Time-kill assay in HEPES or CAA with 25% human serum (Tables 7, 8)
# Type: cell-based, Pseudomonas aeruginosa
# CONDITION_INFO: CAA + 25% human serum; lysin 10 μg/ml; 1 hr; WC-453
MEASURED_ATTRIBUTE: CAA/HuS (Log10 CFU/mL), 1 hr

INSERT INTO results (molecule, endpoint_value) VALUES
  ('GN333: lysin obtained from Delftia sp. (SEQ ID NO: 28) (protein, listed as Delftia sp.) MALTEQDFQSAADDLGVDVASVKAVTKVESRGSGFLLSGVPKILFERHWMFKLLKRKLGRDPEINDVCNPKAGGYLGGQAEHERLDKAVKMDRDCALQSASWGLFQIMGFHWEALGYASVQAFVNAQYASEGSQLNTFVRFIKTNPAIHKALKSKDWAEFARRYNGPDYKKNNYDVKLAEAYQSFK', '4.9 Log10 CFU/mL');

## Input // returns reported CAA/HuS (Log10 CFU/mL), 1 hr for input GN7: lysin obtained from a marine metagenome (SEQ ID NO: 206) (protein, GOS_4958713 hypothetical protein GOS_4958713, partial [marine metagenome]) MTPFDHALELTLGLEGGYSNHLMDRGGETMCGITEAVARRHGWEGEMRDLPIEMVRHIYKVDYWDPLMGDYLGEHNPELAEELFDTAVNCGVGFASKILQKSINVLNRNRTEDIAEDGQIGPQTLKALRDLARRDYDYLLECCKILQGNHYISLAHRDPTQRIFIRGWLTRV
## Output 7.0 Log10 CFU/mL
